Give measured apparent KD of MS2 coat protein for each item. Keep answers brief.
System: MS2 coat protein
Test: apparent KD of MS2 coat protein; designed switch direction (-1 OFF switch, 1 ON switch): -1; higher = weaker reporter binding
Settings: input ligand: FMN 200 uM
One number for each entry, in nM.

Supply reported apparent KD of MS2 coat protein belonging to this sequence: GGGCCCGGUGUGAGGAUAUUGGGCCCGAAAGGGCCCGAGAAGGCACAUGAGGAUCACCCAUGUAAGCCGGGCCC [-46.5, -44.5 kcal, A 23%, 5c-0] (Eterna round: R97, puzzle: Brourd's mod of Exclusion 4)
15.8

Attention now turns to another entry.
Answer with the recorded apparent KD of MS2 coat protein for the sequence listed here: GUAGUGUUAGGAUAUCUGCCUCCGAGGUAUUCCAUGAAUAGAGAGAAGGGACAUGAGGAUCACCCAUGUGGGUA [Eternabot (L2) Solution 92] (Eterna round: R97, puzzle: Exclusion 4)
90.5

###

System: MS2 coat protein
Assay: apparent KD of MS2 coat protein; designed switch direction (-1 OFF switch, 1 ON switch): -1; higher = weaker reporter binding
Conditions: Eterna round: R95; input ligand: FMN 200 uM
measured_attribute: apparent KD of MS2 coat protein (nM)
Give bare numbers, in nM.

Worked cases, apparent KD of MS2 coat protein given:
State its apparent KD of MS2 coat protein: ACAAGCUUUUUGCUCGUCGAGUAGAAACGUGAGAGCGAGACAUGAGGAUCACCCAUGUAAAGGCAGUAGGUGGAGAU [JR_SV3TOV2_Sub025] (puzzle: Sensor v3, turn-off variant 2)
33.2

State its apparent KD of MS2 coat protein for this sequence: AGAAGUAGUAACCGAUCCUACAUGAGGAUCACCCAUGUAGCUAGACGUGCACGCGAAGCUCGUCAGACUACCAGAUG [salish99_TOv1_r3_023] (puzzle: Sensor v3, turn-off variant 1)
298

Tell me measured apparent KD of MS2 coat protein for GAGGCAUGCCGAGGUCCACACAUGAGGAUCACCCAUGUCAUGACAGGCUUUUUACUCGUUUUAUCGCUAUCGCGUUC [Vebizaledi] (puzzle: Sensor v3, turn-off variant 1) please.
84.8

Specify apparent KD of MS2 coat protein for CAUGCUUCGGCAUGUACAAGCUUUUUGCUCGUCUUAUUAACAUGAGGAUCACCCAUGUUAAUGAGACCUCAUGUAUU [Sensor v3 - turn-off variant 2 - 8] (puzzle: Sensor v3, turn-off variant 2) and stop.
13.6

Now look at this entry.
Find the measured apparent KD of MS2 coat protein of AAAAGGCGUGUGAGGAUAUCCGGAGACGUGAAAAGGGAGAAGGCACAUGAGGAUCACCCAUGUGGAGUGUAAAG [Uscece] (puzzle: Brourd's mod of Exclusion 4) and report it.
38.2

###

Give measured apparent KD of K4 kissing-loop reporter for each item. Keep answers brief.
Tested on: K4 kissing-loop RNA reporter;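 note: bound reporter read as fluorescence of individual clusters on recovered sequencing chips by microscopy, with normalized cluster intensities fitted with a binding model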
Assay: apparent KD of K4 kissing-loop reporter; higher = weaker reporter binding
Conditions: Eterna round: R107; input ligand: FMN 200 uM
One number for each entry, in nM.

In the examples that follow, each entry is paired with its recorded apparent KD of K4 kissing-loop reporter.
Indicate the recorded apparent KD of K4 kissing-loop reporter value for this sequence: GCUAUGGUAGGAAGGAGCGCUACUUUGUUUUUACGAGUGAUGUUCGGAAGCAGAGUGUUAAAGCAGGUAGGUCGCCUACUAUAGC [Arginine B K4 20]
171

Consider the sequence GAUGAUCGCGCGGCCGCCACUGGUCAGUGAUGUUGACAUUAAGGCGCCGAGUAGUAACGGCGCCACAGGACCGGGCGCGAUGUAG [First Shot] and give its recorded apparent KD of K4 kissing-loop reporter.
135

Provide one value: measured apparent KD of K4 kissing-loop reporter of GCCUGGGCACGAAGGAGCGCCGUGACAGGUUACUGCCGUGGGCAGUGAUGUUGCUCAAUCUGGCAGGUAGGUCGCGUGCCCAGGC
137

// batch mode: one apparent KD of K4 kissing-loop reporter value per listed entry
1. AACAGCAAUGCGGCCGCCACUUCGAGGUCAGUGAUGUUGACGGGAUUAAAUAAAGAUCCCAAGAGGAGGACCGGGCAGUGCUGUU [whbob_SS_Tryp_B_t26]
2. ACGUCAUCAAAAGGAUAUGCAUCGAAGUGAUGUUUCGUCAUAUCAGUCUGAUUGCAGCAAUUAGGAGCAGAAGGUUUAGUCCGGU [theeternabot_exclusion_KL_FMN_B_11]
3. GCCGUAGAUUGAAGGAGCGGCACCCACGGCUCUAACACCUAAGUGAUGUUUAGGUAGUGGUGCCAGGUAGGUCGCAAUCUACGGC
4. UCGAAGGAUGGAAGGAGCGCUCGUCAGCCCUGCGAGUGAUGUUCGUGGGUAAAUAGUCGCGAGCAGGUAGGUCGCCAUCUUGAGC [Ritera]
5. CUGGGUUGACGAAAAGUCAACAAAAGAGAAGGAGCGCACGAAAGUGCAGGUAGGUCGCUCAAUCCAGUGAUGUUGGGUCGUCCAG [#OpenEnded 11 #K4Late]

[225, 91.6, 144, 128, 279]

###

Tested on: MS2 coat protein
Experiment: apparent KD of MS2 coat protein; higher = weaker reporter binding
Conditions: Eterna round: R107; input ligand: arginine 13.2 mM
measured_attribute: apparent KD of MS2 coat protein (nM)
Answers are plain numbers, in nM.

Below, 4 sequences whose answers are already recorded.
Respond only with apparent KD of MS2 coat protein recorded for AAUAACAUGAGGAUCACCCAUGUAAAAGAUACCAGAGUGAUGAUCCUCCCUUGGCAGCUUAAUAACGCUAUUGGAAACAAUAGCG [Mat - Same State Theophlline A - Mod of Eli - D7]
34.9

Answer with the recorded apparent KD of MS2 coat protein for the sequence listed here: GGCACCAGGAGAAGGAGCGUGAAGACAUGAGGAUCACCCAUGUAGAGGCCCGGACCGGGUUCGCAGGUAGGUCGCUCCUGGUGCC [#1 Same State - Arginine B Attempt #15 (HarryS)]
10

Consider the sequence ACUAGUUGUGCAGAUACCAGACAUGAGGAUCACCCAUGUUUGGGAUCUUCGGAUCUUCCUGUCCCUUGGCAGCUGUACAUCUAGA [Omei Theo B Exc v3] and give its recorded apparent KD of MS2 coat protein.
62.6

Look up apparent KD of MS2 coat protein of UAUCGUCAGACGGCCGCCACUAGAACAUGAGGAUCACCCAUGUACCCGGUCCAUUCCUCAUUAACUAGGACCGGGUCUGACGAAU [(Trp1)-(Ms2)-(T)'-(M)'-(Trp2)_Design13] and report it.
88.3

Provide the reported apparent KD of MS2 coat protein of each entry below, same order.
1. GCGAUGGAGCGAAGGAGCGGCUAAAUGUAACACAUGAGGAUCACCCAUGUUCCAAGAUGUGGCCAGGUAGGUCGCGCUCCAUCGC [SSAB NP+V+V2 #15]
2. GAUAGUUGAUGGGAUACCAGCCUACACAUGAGGAUCACCCAUGUGAUUCGUGUACGACUGGGCCCUUGGCAGCCCAUAUUGUGUA [#12 Same State - Theophylline B]
3. GGGAGAUAGGCGGCCGCCACUGAUUUUCAUAUAUAUAUAACAUGAGGAUCACCCAUGUAGAUAUACAGGACCGGGCCUAUUUUUU [aaaE]
4. UCAUGCAGGUCGGCCGCCACUACACACAUGAGGAUCACCCAUGUAGUUACUGGGUGAAGUGGCAGUAGGACCGGGACCUGCAUAC [Brourdmod09]

[61.8, 46.1, 19.1, 89.1]

Dear colleague, could you send me apparent KD of MS2 coat protein for each of the items below? Thanks.
1. GAACAUAAGGAUAGUAUAAUGACUACAGAAGGAGCGUCAGGAAGGACAGGUAGGUCGCUGGAAGACAUGAGGAUCACCCAUGUUU [Arg A SS t2]
2. GAGCGCAGUUUACAACAUACUAACACAGAUACCAGAAAUUUUAUGUUCCCUUGGCAGCUGACAACAUGAGGAUCACCCAUGUGCU [theeternabot_exclusion_MS2_Theo_A_27]
3. AAUCGGAGAUGAAGGAGCGCGUACAUGAGGAUCACCCAUGUAUCAAAGCUUCUCCCGUGUAUGCAGGUAGGUCGCAUUUCCACGU [Ceriedan]
4. AAACUGAUCUUCAGGAGUCACUAUAUCUCCCGAGGACCGGUACGGCCGCCACUCGAACGUUUACAUGAGGAUCACCCAUGUGACU [theeternabot_exclusion_MS2_Trp_A_4]

25.6
17.5
10.1
13.6

###

Test system: MS2 coat protein
Assay: apparent KD of MS2 coat protein; designed switch direction (-1 OFF switch, 1 ON switch): 1; higher = weaker reporter binding
Conditions: input ligand: FMN 200 uM
measured_attribute: apparent KD of MS2 coat protein (nM)
Answers are plain numbers, in nM.

Solved entries (count: 3):
Hello, please tell me recorded apparent KD of MS2 coat protein for this one: GGCCAGAGUCAAGGAUAUGCUACCGUUUCGGUAGCAGAAGGUGAUCACAUGAGGAUCACCCAUGUUUACUGGGAGACCAUGGCC [JL SSNG1 3.69] (Eterna round: R96, puzzle: Same State NG 1)
219

Return the recorded apparent KD of MS2 coat protein value; entry: UUGAAGAAUUAAGGAUAUCGAGUCGUCAGAUUAAACAUGAGGAUCACCCAUGUGGGUUGCGGUAUCGAGAAGGUAAAUUACAAG [JL JR Sub099 mod 2] (Eterna round: R96, puzzle: Same State NG 2)
20.5

Give the reported value of apparent KD of MS2 coat protein for this record: AACAGUCGGCGAGGAUAUGGACAUACGGACUAACCCGUAUGGCUCACAUGAGGAUCACCCAUGUUCUAGAAGGCGCCACUGAAA [Raridi] (Eterna round: R96, puzzle: Same State NG 2)
14.6

***
Return value of apparent KD of MS2 coat protein for input UUGAAGAAUAUAGGAUAUUGAAUACAUAUGUUUAACAUGAGGAUCACCCAUGUGGGUUGCGGUAUCGAGAAGGAUAAUUACUAG [Mat - Same State NG 2 - JL mod - D12] (Eterna round: R96, puzzle: Same State NG 2) , no commentary.
185

Every entry's value here was drawn from the supplement of paper PMC9170038.
